Recorded measurements of pEC50, one per entry
# target.of.assay: T1R umami taste receptor (Homo sapiens, UniProt Q7RTX0+Q7RTX1)
# assay.notes: in vitro cell-based assay having cells that express the T1R umami taste receptor (enhancement of MSG)
# conditions.used: cells expressing T1R umami taste receptor; read-out: EC50 for enhancement of MSG binding
pEC50: −log10 of the molar value.

Example molecules with recorded pEC50:
C/C=C/C=C/C(=O)N[C@@H](CC(C)C)C(=O)OCC [Compound 181]; < 4.30
COC(=O)[C@@H](Cc1ccccc1)NC(=O)c1ccc(C)c(C)c1 [Compound 113]; 6.52
C/C=C/C=C/C(=O)N[C@H](C(=O)OCC)C(C)C [Compound 179]; < 4.30
CCOC(=O)CC[C@H](NC(=O)c1cn(C)c2ccccc12)C(=O)OCC [Compound 134]; < 4.30
C/C=C/C(=O)N[C@@H](Cc1ccccc1)C(=O)OC [Compound 167, Methyl (E)-but-2-enoyl-L-phenylalaninate]; < 4.30

Input COC(=O)[C@H](Cc1ccccc1)NC(=O)c1cccc(OC)c1 [Compound 107] . Output pEC50: < 4.30

Input COC(=O)[C@H](Cc1ccccc1)NC(=O)c1ccc2c(c1)OCO2 [Compound 128] . Output pEC50: < 4.30

Input CCOC(=O)CC[C@H](NC(=O)/C=C/c1ccc(OC)cc1)C(=O)OCC [Compound 151] . Output pEC50: 5.70

Input CCCCc1ccc(C(=O)N[C@@H](Cc2ccccc2)C(=O)OC)nc1 [Compound 132] . Output pEC50: < 4.30

* * *

# target.of.assay: T1R umami taste receptor (Homo sapiens, UniProt Q7RTX0+Q7RTX1)
# Sequence (Q7RTX1 21-841): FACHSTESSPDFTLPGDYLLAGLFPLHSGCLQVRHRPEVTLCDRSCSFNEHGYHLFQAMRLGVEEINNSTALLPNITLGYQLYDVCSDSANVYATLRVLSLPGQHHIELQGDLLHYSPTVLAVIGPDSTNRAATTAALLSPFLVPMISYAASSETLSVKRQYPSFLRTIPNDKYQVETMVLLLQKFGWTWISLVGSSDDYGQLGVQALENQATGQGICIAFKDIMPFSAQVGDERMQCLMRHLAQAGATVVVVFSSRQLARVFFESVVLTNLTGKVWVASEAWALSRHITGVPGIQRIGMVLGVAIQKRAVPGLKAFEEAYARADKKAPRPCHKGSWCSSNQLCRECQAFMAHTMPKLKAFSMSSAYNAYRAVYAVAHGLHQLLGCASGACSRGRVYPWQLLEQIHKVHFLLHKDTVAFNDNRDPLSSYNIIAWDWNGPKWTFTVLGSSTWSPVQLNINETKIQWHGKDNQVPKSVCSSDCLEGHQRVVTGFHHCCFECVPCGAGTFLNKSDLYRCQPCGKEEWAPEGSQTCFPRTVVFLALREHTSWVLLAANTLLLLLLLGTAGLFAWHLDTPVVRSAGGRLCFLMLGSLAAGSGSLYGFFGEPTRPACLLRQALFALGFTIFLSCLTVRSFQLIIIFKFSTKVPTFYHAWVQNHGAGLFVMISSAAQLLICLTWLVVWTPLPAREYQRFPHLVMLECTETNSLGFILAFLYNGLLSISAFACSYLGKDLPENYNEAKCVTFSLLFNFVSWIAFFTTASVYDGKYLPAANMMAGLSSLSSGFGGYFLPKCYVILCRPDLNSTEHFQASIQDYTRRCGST
# Sequence (Q7RTX0 21-852): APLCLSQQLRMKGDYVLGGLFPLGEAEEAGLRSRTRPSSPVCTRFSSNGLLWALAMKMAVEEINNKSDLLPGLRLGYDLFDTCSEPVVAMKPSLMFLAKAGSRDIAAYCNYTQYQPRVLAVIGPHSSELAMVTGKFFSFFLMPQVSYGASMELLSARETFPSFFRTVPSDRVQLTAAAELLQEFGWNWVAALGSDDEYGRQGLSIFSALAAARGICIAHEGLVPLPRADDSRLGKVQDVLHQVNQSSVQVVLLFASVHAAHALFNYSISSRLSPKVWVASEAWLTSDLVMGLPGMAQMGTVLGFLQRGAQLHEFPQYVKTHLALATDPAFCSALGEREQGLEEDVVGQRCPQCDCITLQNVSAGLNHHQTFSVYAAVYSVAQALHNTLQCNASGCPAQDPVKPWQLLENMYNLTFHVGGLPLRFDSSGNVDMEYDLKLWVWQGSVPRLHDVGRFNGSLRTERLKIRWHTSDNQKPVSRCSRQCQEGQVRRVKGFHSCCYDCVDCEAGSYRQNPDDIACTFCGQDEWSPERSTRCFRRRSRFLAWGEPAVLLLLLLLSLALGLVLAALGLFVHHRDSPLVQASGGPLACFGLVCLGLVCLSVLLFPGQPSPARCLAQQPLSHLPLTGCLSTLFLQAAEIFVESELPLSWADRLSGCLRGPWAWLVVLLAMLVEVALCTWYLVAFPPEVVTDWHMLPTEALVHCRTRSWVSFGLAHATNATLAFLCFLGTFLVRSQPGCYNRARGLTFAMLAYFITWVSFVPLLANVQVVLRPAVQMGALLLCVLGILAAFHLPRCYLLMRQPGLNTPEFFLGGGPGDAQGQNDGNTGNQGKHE
# assay.notes: in vitro cell-based assay having cells that express the T1R umami taste receptor (enhancement of MSG)
# conditions.used: cells expressing T1R umami taste receptor; read-out: EC50 for enhancement of MSG binding
readout.type: pEC50
Quick note: pEC50 means taking -log10 of the concentration in moles per liter.

Example compounds with recorded pEC50:
COC(=O)[C@H](Cc1ccccc1)NC(=O)c1ccc(C)c(C)c1; 5.10
CCOC(=O)[C@H](Cc1ccccc1)NC(=O)c1ccc(C)c(C)c1; 4.92

Let's switch to this compound now.
Input CCOC(=O)[C@@H](NC(=O)/C=C/c1ccccc1OC)C(C)C . Output pEC50: 4.82

* * *

# target.of.assay: T1R umami taste receptor (Homo sapiens, UniProt Q7RTX0+Q7RTX1)
# assay.notes: in vitro cell-based assay having cells that express the T1R umami taste receptor (enhancement of MSG)
# conditions.used: compound at 50 μM
readout.type: MSG Enh. Ratio

Example compounds with recorded MSG Enh. Ratio:
C=C(C)C1CC=C(C(=O)N[C@@H](Cc2ccccc2)C(=O)OC)CC1 (some centres unmarked) [Compound 166]; 4.6 @
COC(=O)[C@@H](NC(=O)c1ccc(OC)c(OC)c1)C(C)C [Compound 124, Methyl (3,4-dimethoxybenzoyl)-L-valinate]; 1.8 @

Input CCOC(=O)[C@@H](NC(=O)c1ccc(OC)cc1)C(C)C [Compound 106, Ethyl (4-methoxybenzoyl)-L-valinate] . Output MSG Enh. Ratio: 3.6 @

Input CCC/C=C/C(=O)N[C@@H](Cc1ccccc1)C(=O)OC [Compound 176, Methyl (E)-hex-2-enoyl-L-phenylalaninate] . Output MSG Enh. Ratio: 8.4 @

Input COC(=O)[C@H](C)NC(=O)/C=C/c1ccc(OC)cc1 [Compound 142] . Output MSG Enh. Ratio: 3.3 @

* * *

# target.of.assay: T1R umami taste receptor (Homo sapiens, UniProt Q7RTX0+Q7RTX1)
# Sequence (Q7RTX1 21-841): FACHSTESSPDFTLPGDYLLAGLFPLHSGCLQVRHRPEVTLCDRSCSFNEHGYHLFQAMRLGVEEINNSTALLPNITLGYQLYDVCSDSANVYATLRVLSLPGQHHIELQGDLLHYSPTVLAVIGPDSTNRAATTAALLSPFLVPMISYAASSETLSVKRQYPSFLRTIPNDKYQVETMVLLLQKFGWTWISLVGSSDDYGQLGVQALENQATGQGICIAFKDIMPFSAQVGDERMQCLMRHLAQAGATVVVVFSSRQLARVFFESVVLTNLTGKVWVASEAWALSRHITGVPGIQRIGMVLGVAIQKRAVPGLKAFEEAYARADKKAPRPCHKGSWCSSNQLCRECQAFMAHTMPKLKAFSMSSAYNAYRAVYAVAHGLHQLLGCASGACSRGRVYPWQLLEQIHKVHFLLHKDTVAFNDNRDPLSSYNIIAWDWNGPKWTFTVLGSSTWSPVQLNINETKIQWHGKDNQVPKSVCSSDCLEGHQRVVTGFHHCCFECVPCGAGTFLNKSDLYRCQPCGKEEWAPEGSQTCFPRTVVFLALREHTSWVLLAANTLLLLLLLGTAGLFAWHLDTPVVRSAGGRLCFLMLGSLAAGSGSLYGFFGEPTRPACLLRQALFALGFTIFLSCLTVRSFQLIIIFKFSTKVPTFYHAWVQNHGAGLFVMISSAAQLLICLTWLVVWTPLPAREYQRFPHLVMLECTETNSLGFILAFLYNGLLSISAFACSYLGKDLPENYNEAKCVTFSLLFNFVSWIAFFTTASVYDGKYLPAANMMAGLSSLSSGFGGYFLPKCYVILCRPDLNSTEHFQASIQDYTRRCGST
# Sequence (Q7RTX0 21-852): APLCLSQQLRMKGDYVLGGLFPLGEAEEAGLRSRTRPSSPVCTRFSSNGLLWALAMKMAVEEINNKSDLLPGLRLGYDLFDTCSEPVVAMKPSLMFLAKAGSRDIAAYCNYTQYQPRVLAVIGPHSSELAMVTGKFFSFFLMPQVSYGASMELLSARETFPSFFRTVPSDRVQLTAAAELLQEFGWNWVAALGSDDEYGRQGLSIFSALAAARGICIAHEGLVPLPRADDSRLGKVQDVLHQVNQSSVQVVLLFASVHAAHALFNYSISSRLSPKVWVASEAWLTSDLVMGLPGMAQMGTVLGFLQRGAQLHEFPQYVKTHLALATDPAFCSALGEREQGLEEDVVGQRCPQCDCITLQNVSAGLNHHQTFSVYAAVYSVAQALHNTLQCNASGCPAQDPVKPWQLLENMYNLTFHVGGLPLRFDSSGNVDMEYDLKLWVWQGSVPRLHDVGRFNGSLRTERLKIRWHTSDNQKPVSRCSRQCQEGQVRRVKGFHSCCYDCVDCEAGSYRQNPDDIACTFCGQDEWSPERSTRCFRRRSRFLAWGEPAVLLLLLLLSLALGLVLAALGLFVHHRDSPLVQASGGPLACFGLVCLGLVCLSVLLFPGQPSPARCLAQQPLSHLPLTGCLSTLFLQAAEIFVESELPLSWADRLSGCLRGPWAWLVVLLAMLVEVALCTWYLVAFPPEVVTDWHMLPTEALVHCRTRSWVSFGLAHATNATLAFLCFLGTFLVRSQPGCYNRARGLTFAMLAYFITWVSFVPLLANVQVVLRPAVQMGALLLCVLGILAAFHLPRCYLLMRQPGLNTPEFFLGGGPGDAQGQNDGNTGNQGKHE
# assay.notes: in vitro cell-based assay having cells that express the T1R umami taste receptor (enhancement of MSG)
# conditions.used: compound at 50 μM
readout.type: MSG Enh. Ratio

CCOC(=O)CC[C@H](NC(=O)c1cn(C)c2ccccc12)C(=O)OCC; 3.8 @
CCC/C=C/C(=O)N[C@@H](Cc1ccccc1)C(=O)OCC [Compound 177, Ethyl (E)-hex-2-enoyl-L-phenylalaninate]; 8.8 @
CCOC(=O)C[C@H](NC(=O)/C=C/c1ccccc1)C(=O)OCC [Compound 138, Diethyl cinnamoyl-L-aspartate]; 2.0 @

Input C/C=C/C(=O)N[C@@H](Cc1ccccc1)C(=O)OC [Compound 167, Methyl (E)-but-2-enoyl-L-phenylalaninate] . Output MSG Enh. Ratio: 2.1 @

Input CCOC(=O)CC[C@H](NC(=O)c1ccc(C(C)C)cc1)C(=O)OCC [Compound 111, Diethyl (4-isopropylbenzoyl)-L-glutamate] . Output MSG Enh. Ratio: 4.4 @

Input C/C=C/C=C/C(=O)N[C@@H](Cc1ccccc1)C(=O)OCC . Output MSG Enh. Ratio: 3.4 @

Input CCOC(=O)CC[C@H](NC(=O)/C=C/c1ccc(O)cc1)C(=O)OCC . Output MSG Enh. Ratio: 4.2 @
